# credit: paper PMC3087504

- Target Desc: T1, MBP-TAp63α (Mus musculus, UniProt O88898 40-680)
- T1 sequence: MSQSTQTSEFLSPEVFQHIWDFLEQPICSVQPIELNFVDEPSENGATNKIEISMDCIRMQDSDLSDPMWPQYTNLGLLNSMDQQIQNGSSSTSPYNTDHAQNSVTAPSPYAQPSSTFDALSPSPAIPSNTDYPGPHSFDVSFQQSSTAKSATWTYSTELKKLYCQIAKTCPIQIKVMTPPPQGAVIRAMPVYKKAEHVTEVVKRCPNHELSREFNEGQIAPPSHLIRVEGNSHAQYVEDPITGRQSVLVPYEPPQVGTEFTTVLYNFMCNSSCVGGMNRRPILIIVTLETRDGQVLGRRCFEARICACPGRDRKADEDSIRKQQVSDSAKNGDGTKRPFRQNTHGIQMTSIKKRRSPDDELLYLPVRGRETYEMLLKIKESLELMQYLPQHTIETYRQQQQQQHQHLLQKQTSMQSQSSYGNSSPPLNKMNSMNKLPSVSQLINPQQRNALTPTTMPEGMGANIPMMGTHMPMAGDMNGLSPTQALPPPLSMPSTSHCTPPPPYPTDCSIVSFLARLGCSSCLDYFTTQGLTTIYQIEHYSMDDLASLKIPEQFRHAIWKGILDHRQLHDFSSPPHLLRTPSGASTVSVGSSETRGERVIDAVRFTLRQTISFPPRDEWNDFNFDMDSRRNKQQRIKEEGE
- Measurement Protocol: fluorescence anisotropy; two-site fit, monomer concentration; second-site KD negative, uninterpreted; 10 mM potassium phosphate pH 7.6, 200 mM NaCl, room temperature, 30 min; 15 nM p21 DNA (300 nM for controls), protein 0.1-15 µM monomer
- Test Conditions: protein: recombinant; tags: N-term MBP; C-term His6; chain copies: 2; label: 5'-fluorescein

Binder	Measurement Unit	Kd
p21 promoter response element (dsDNA) DNA 1: GGCAGGAACATGTCCCAACATGTTGAGCCG DNA 2: CGGCTCAACATGTTGGGACATGTTCCTGCC	µM	7.51
